Matrix metalloproteinase-9 (Homo sapiens) data, read-out IC50
Sequence (P14780 whole entry): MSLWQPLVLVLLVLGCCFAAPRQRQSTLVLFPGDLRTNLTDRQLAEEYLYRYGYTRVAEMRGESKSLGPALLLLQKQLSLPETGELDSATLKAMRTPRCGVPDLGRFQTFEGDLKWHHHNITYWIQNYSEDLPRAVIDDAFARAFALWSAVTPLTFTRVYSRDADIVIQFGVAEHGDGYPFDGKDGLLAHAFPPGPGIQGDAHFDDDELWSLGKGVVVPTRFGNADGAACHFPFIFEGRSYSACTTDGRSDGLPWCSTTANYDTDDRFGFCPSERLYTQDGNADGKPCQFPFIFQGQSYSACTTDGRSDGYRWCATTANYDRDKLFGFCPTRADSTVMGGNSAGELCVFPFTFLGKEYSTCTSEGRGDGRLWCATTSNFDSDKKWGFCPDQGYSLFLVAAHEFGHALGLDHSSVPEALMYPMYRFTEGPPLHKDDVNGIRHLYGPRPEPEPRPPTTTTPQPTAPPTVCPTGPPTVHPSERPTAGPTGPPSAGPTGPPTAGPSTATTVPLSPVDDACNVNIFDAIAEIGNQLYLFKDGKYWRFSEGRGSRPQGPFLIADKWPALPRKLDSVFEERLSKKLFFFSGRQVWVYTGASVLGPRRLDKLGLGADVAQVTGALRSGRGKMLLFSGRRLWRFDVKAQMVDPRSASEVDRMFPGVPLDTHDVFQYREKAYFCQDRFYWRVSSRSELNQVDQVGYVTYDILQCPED
endpoint.label: IC50 (nM)

>>> readout_number("O=CN(O)C(CS(=O)(=O)c1ccc(Oc2ccc(OC(F)(F)F)cc2)cc1)[C@H](O)CO (some centres undefined)")
0.092
>>> readout_number("CN1C(=O)N(CC(CS(=O)(=O)c2ccc(Oc3ccc(Cl)cc3)cc2)N(O)C=O)C(=O)C1(C)C (centres undefined)")
1.4
>>> readout_number("CC1(C)OCC(C[C@@H](CS(=O)(=O)c2ccc(Oc3ccc(OC(F)(F)F)cc3)cc2)N(O)C=O)O1 (some centres undefined)")
5.5
>>> readout_number("CCCCOc1ccc(-c2ccc(S(=O)(=O)CC(CN3C(=O)NC(C)(C)C3=O)N(O)C=O)cc2)cc1 (centres undefined)")
6.2
>>> readout_number("CC1(C)OC[C@@H]([C@@H](CS(=O)(=O)c2ccc(Oc3ccc(OC(F)(F)F)cc3)cc2)N(O)C=O)O1 (stereo in doubt; 19v)")
2.3
>>> readout_number("CN(CC(CS(=O)(=O)c1ccc(Oc2ccc(OC(F)(F)F)cc2)cc1)N(O)C=O)S(C)(=O)=O (centres undefined)")
1.7
>>> readout_number("O=CN(O)C(CCC(=O)N1CCOCC1)CS(=O)(=O)c1ccc(Oc2ccc(OC(F)(F)F)cc2)cc1 (centres undefined)")
2
>>> readout_number("CC1(C)OC[C@@H]([C@@H](CS(=O)(=O)c2ccc(Oc3ccc(OC(F)(F)F)cc3)cc2)N(O)C=O)O1 (stereo in doubt; 19x)")
480
>>> readout_number("O=CN(O)C(COCCO)CS(=O)(=O)c1ccc(Oc2ccc(OC(F)(F)F)cc2)cc1 (centres undefined)")
0.3

Data origin, for the record: ChEMBL document CHEMBL1135750
